Reference for the values: the supplement of paper PMC6555819

Parameter PBM binding z-score: see the listing below.
system: RARg homodimer (NR concentration 270 nM); assay: PBM binding z-score (relative to random genomic background probes); higher = stronger binding; sequences stand for … in GC…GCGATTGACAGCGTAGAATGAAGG
Form field (numeric): enter value without unit.

Example entries and their recorded answers appear below.
sequence_entry	PBM binding z-score
TCTCGGAGGACACGAAGGTCAAAGCTTTCCAGAG	4.3
CCGACTGGGGCAAAGGTTACGATACTCAGTACGA	1.78
CGAACTAGGTCATCAGGACAGTGAAGAGGTTGGA	4.73
CGACCTAGGTCACCAGGACAGTGAAGAGGTTGGA	5.83
GGAACGAGGGCATTCGAGTTGATAGCATGGCGAT	1.3

Q. Quick check: PBM binding z-score of TCGAGTCGGTTACGGGGGCATTCAGGGATGAAGA ?
A. 1.77

---

Parameter PBM binding z-score: see the listing below.
test system: LXRa:RXRa (NR concentration 270 nM, RXRa partner concentration 90 nM); assay: PBM binding z-score (relative to random genomic background probes); higher = stronger binding; sequences stand for … in GC…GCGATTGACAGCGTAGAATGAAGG
Form field (numeric): enter value without unit.

Example entries and their recorded answers appear below.
sequence_entry	PBM binding z-score
GATACAGGGTGAAGGCCAGAGTACGCGTATTGAT	-0.357
CGAAGTAGGTCACCAGGACAGTGAAGAGGTTGGA	2.69
CCGAGTAGGTTACGAGAGGGCATTCAGTGCGAAT	7.41
TAGCCTAGGTCATTCAGGGGTCAGTATAGAAAGC	5.2
ATATGAAGGTTAGGGTCATTCAGAAAGTAGGGAA	4.18
TAGCCAAGGTCATTCAGGGGCCAGTATAGAAAGC	5.84

Q. Can you look up PBM binding z-score on LXRa:RXRa (NR concentration 270 nM, RXRa partner concentration 90 nM) for CCGAGTAGGGTACGAGGGGGCATTCAGTGCGAAT ?
A. 4.84

Q. Can you look up PBM binding z-score on LXRa:RXRa (NR concentration 270 nM, RXRa partner concentration 90 nM) for CTATGTAGGTTAAGTGGGTCATTCAGTTTGAAAG ?
A. 2.35

Q. Can you look up PBM binding z-score on LXRa:RXRa (NR concentration 270 nM, RXRa partner concentration 90 nM) for CTATGTTGGTTAAGGGGGTCATTCAGTTTGAAAG ?
A. 4.68

---

Parameter PBM binding z-score: see the listing below.
system: PXR:RXRa (NR concentration 270 nM, RXRa partner concentration 90 nM); test: PBM binding z-score (relative to random genomic background probes); higher = stronger binding; sequences stand for … in GC…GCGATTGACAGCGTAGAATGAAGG
Form field (numeric): enter value without unit.

Example entries and their recorded answers appear below.
sequence_entry	PBM binding z-score
CTATGTACGTTAAGGGGGTCATTCAGTTTGAAAG	5.68
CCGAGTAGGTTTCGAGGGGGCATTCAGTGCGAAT	3.09
CGAACTAGGTCAGCAGGACAGTGAAGAGGTTGGA	0.361
GCTGCTAGGTCAACTGATGGTCAGCTAGAGCTCG	1.55
CCTAGTTGGTCAGGAAGTCACACACCGGATATGA	0.246
GCATATAGGTAATTCAAGGTGAAAGTCCGATTGT	0.919
CGAACTAGGTCACCCGGACAGTGAAGAGGTTGGA	1.55
TAGCCTAGGTCATAGGGCCAGTATAGTACGCATC	1.45

Q. Quick check: PBM binding z-score of CGAACTAGGTCACCAGGACTGTGAAGAGGTTGGA ?
A. 1.55

Q. Quick check: PBM binding z-score of CAAACTAGGTCAAAGGTCAAAGACGAGCCAACCA ?
A. 7.17

Q. Quick check: PBM binding z-score of TCTCGGATGACACGAAAGGTCAGAGCTCGACATC ?
A. 3.7

Q. Quick check: PBM binding z-score of CCGACTGGGGCAACGGTTACCATACTCAGTACGA ?
A. -0.591

---

tested on: RARg homodimer (NR concentration 270 nM); experiment: PBM binding z-score (relative to random genomic background probes); higher = stronger binding; sequences stand for … in GC…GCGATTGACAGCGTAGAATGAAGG
quantity_kind: PBM binding z-score
Form field (numeric): enter value without unit.

Example entries and their recorded answers appear below.
sequence_entry	PBM binding z-score
GCTGCTAGGTTAACTGATGGTCAGCTAAAGCTCG	0.672
CGAACTAGGTCAAAGGACACTGAAAGGCGACGTA	4.7
GCATACGGGTCAAAGGTTATAGCATGAATAGAAT	4.87
CAAACTAGGTCAAAGGTCAAAGCCGAGCCAACCA	7.51
CTTAGTTGGTCAAGGTCACACACGCTATAGGTAC	5.2

Proceed to the following item.
Q. Quick check: PBM binding z-score of CCTAGTTGGTCAAGCTCACACACGCTATAGGTAC ?
A. 1.12

---

system: RXRa homodimer (NR concentration 180 nM); assay: PBM binding z-score (relative to random genomic background probes); higher = stronger binding; sequences stand for … in GC…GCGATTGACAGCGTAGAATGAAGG
quantity_kind: PBM binding z-score
Form field (numeric): enter value without unit.

Example entries and their recorded answers appear below.
sequence_entry	PBM binding z-score
CGAATTAGGTCACCAGGACAGTGAAGAGGTTGGA	3.42
TTACCAAGGTGAAGGTCGTGGATCCCTCTGTAGA	2.63
CAAGCTAGGTCAAAGGTCAAAGTCGAGCCAACCA	10.6
ATATGTAGGTTACCGGGTCATTCAGTTTGCGCAT	4.15
CGTCCAAGGTCAACGCTAGGTCAGTGAAAGCATT	6.38

Proceed to the following item.
Q. Can you look up PBM binding z-score on RXRa homodimer (NR concentration 180 nM) for CGAACTAGGTCAAAGGACAGTTAAAGGCGACGTA ?
A. 3.1

---

tested on: RARb homodimer (NR concentration 270 nM); assay: PBM binding z-score (relative to random genomic background probes); higher = stronger binding; sequences stand for … in GC…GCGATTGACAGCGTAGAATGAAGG
quantity_kind: PBM binding z-score
Form field (numeric): enter value without unit.

Example entries and their recorded answers appear below.
sequence_entry	PBM binding z-score
ATAGAAAGGTCGAAGGTGAGTATACCCACCCGAA	2.36
ATATGTAGGTTAGGGTCATACAGAAAGTAGGGAA	3.48
ATATGTGGGTTAGGGTCATTCAGAAAGTAGGGAA	3.67
CCTAGCAGGCCAATCGGGGTCACTCAAGGCTTGA	3.66
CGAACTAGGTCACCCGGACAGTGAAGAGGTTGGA	3.23
CCTTACAGGTCACGAGGTTATAGCACGACGAGCG	4.51

Q. Quick check: PBM binding z-score of AATACAGGGTCGCTAGGCCAGAGTAGGTACGAAT ?
A. 0.921

Q. Quick check: PBM binding z-score of CGAACTAGGACAAAGGACAGTGAAAGGCGACGTA ?
A. 0.856

Q. Quick check: PBM binding z-score of GATACAGGGTCATCTAGAGGCCAGAGTATGGAAA ?
A. 3.71

Q. Quick check: PBM binding z-score of TGAATGAGGTTAAAGGTCAGGGAACGTGGCGTCG ?
A. 4.57

Q. Quick check: PBM binding z-score of AATTCAGGGTCACTAGGCCAGAGTAGGTACGAAT ?
A. 3.83

Q. Quick check: PBM binding z-score of CCGAGTAGGTTACGAGGGGGCATCCAGTGCGAAT ?
A. 2.11

---

Parameter PBM binding z-score: see the listing below.
test system: RARb homodimer (NR concentration 270 nM); assay: PBM binding z-score (relative to random genomic background probes); higher = stronger binding; sequences stand for … in GC…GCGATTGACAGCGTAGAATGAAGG
Form field (numeric): enter value without unit.

sequence_entry	readout_number
TCGAGTAGGTTACGGGGTCATTCAGGGATGAAGA	3.99
CGAACTAGATCACCAGGACAGTGAAGAGGTTGGA	0.0313

Proceed to the following item.
Q. Quick check: PBM binding z-score of CGAACTATGTCAAGGACAGTGAATCTCCGCACGC ?
A. 0.507

---

tested on: VDR homodimer (NR concentration 270 nM); experiment: PBM binding z-score (relative to random genomic background probes); higher = stronger binding; sequences stand for … in GC…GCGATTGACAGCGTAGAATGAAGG
quantity_kind: PBM binding z-score

Example entries and their recorded answers appear below.
sequence_entry	result
CGAACTAGATCAAAGGACAGTGAAAGGCGACGTA	0.0452
CGAACTAGGTCAAAGGACAGGGAAAGGCGACGTA	0.464
CCTACTGGGCGATTCAGAGGTCATTGATCATATG	2.83
CGTCCAAGGTCAGCAGGTCAGAGAAAGCGACGTG	1.83
ACTCGGAGGACAGAGGTCAGAGCTACGCCAGTGA	1.19
CGAACTAGGTCAAAGAACAGTGAAAGGCGACGTA	0.121
CCTGCTAGGACAATGGTCAGCTAAAGCAGCTCGC	-0.794
CTCGAAAGGTCGGTTGAGGTGACTATACGGATAA	0.829

Q. Can you look up PBM binding z-score on VDR homodimer (NR concentration 270 nM) for CAAACTAGGTCAAAGGTCAACGTCGAGCCAACCA ?
A. 2.86

Q. Can you look up PBM binding z-score on VDR homodimer (NR concentration 270 nM) for CCTCGGAGGACACCAGGAGGTCAGAGCTGCCAGA ?
A. 1.13

Q. Can you look up PBM binding z-score on VDR homodimer (NR concentration 270 nM) for ATATGTAGGTTAGGGTCATTCAAAAAGTAGGGAA ?
A. 3.17
